Values from patent US20220315572A1

measurement.target: Endogenous USP30 (Homo sapiens, UniProt Q70CQ3)
Construct: USP30 endogenous cellular target engagement western blot (WB) assay; endogenous in cells
Sequence (Q70CQ3 1-517): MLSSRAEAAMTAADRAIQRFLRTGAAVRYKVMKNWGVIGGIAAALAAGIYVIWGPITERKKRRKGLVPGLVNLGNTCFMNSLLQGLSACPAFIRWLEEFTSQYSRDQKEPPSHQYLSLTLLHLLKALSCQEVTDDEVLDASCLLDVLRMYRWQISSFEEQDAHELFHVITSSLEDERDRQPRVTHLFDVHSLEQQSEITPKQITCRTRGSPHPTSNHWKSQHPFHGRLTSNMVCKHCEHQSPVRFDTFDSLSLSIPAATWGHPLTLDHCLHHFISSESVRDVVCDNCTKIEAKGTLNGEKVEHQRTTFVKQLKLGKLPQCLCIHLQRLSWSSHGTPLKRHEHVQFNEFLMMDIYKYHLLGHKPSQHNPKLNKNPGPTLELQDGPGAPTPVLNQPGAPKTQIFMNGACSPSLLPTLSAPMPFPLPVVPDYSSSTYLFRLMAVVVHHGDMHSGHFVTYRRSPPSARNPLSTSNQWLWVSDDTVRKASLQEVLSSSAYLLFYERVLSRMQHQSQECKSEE
test.description: USP30 endogenous cellular target engagement western blot assay (Cell TE WB)
experimental.context: Hela cells stably overexpressing YFP-Parkin, 1 hour
Record form. Attribute: EC50. Fill in for each entry.
Quick reminder: number only, in nM, skip the unit.

[in] Find the recorded EC50 belonging to COC[C@@H]1C[C@@H](NC(=O)c2nnc(-c3cccc(C#N)c3)o2)CN1C#N and report it.
[out] 89

[in] Find the recorded EC50 belonging to C[C@@H]1C[C@@H](NC(=O)c2nnc(-c3cccc(C#N)c3)o2)CN1C#N and report it.
[out] 64

[in] Find the recorded EC50 belonging to N#Cc1cccc(-c2nnc(C(=O)N[C@@H]3C[C@@H](CF)N(C#N)C3)o2)c1 and report it.
[out] 37

[in] Find the recorded EC50 belonging to COC[C@@H]1C[C@@H](NC(=O)c2nnc(-c3cc(C#N)ccc3OC)o2)CN1C#N and report it.
[out] 87

[in] Find the recorded EC50 belonging to COc1ccc(C#N)cc1-c1nnc(C(=O)N[C@@H]2C[C@@H](C)N(C#N)C2)o1 and report it.
[out] 72
